Just for reference, patent US20180057604A1 is where these values come from.

experimental_system: T1, human BACE1 ECD
T1 construct: analyte of the Octet assay (200 nM) and enzyme of the first short substrate assay; also called human BACE1 extracellular domain
T1 sequence (single chain, as listed by the source limits assumed): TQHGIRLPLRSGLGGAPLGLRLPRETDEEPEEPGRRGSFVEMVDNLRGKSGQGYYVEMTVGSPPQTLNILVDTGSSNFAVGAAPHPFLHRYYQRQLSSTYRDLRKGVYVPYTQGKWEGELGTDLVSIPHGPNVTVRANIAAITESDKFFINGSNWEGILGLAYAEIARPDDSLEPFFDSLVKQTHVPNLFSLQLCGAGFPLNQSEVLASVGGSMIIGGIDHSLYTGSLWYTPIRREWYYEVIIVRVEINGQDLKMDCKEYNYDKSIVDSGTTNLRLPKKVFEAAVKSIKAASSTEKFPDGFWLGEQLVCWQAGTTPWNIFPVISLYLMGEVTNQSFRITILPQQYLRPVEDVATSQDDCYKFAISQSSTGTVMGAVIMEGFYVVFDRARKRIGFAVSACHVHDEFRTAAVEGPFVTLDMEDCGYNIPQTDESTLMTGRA
experiment_notes: Octet, pH 7.5;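 further: antibodies captured on anti-human capture sensor tips, dissociation monitored in PBS with BSA, Kd obtained from kinetic fit to a one-to-one binding model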
pKd: −log10 of the molar value.
Listed next: entries and their corresponding pKd.

Known results for binders:
query: # return recorded pKd for entry 6271 (antibody, V domains shown, anti-BACE1 IgG) VH: QVQLVQSGAEVKKPGSSVKVSCKASGGTISGYGISWVRQAPGQGLEWMGNIIPGFGTANYAQKFQGRVTITADESTSTAYMELSSLRSEDTAVYYCARSGGTKYGMLDVWGQGTMVTVSS VL: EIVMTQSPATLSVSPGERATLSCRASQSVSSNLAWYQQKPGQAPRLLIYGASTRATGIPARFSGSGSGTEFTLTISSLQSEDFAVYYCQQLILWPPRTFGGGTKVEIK
result: > 9.51

query: Please report the measured pKd for 6280 (antibody, V domains shown, anti-BACE1 IgG) VH: QLQLQESGPGLVKPSETLSLTCTVSGGSTSSSSYYWGWIRQPPGKGLEWIGSIYRSGSTYYNPSFKSRVTISVDTSKNQFSLKLSSVTAADTAVYYCARVGHGISYFDLWGRGTLVTVSS VL: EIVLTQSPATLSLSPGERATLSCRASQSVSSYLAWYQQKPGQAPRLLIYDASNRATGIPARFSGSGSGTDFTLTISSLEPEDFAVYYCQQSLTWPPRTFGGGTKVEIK
result: > 9.49

Next item in the queue.
query: Dear colleague, please send me the reported pKd for 6296 (antibody, V domains shown, anti-BACE1 IgG) VH: QLQLQESGPGLVKPSETLSLTCTVSGGSISSSSYYWGWIRQPPGKGLEWIGNIYYSGSTYYNPSLRGRVTISVDTSKNQFSLKLSSVTAADTAVYYCARLGHGYNYFDLWGRGTLVTVSS VL: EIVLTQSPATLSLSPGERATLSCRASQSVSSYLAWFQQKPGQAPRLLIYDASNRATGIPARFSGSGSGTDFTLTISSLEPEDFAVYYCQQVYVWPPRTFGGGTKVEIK when you can.
result: 9.55
